Here, each record is paired with measured Kd data.
Biological target: KIT kinase (Homo sapiens (Human))
Assay: Competition binding assay (Kd), KIT
Settings: competition binding assay

COc1cc(OC)c2cc(-c3ccc(CC(=O)Nc4cc(C5(C(F)(F)F)CC5)on4)cc3)cnc2c1; 5 to 20 nM

query: What does the record list as Kd for `COc1cc2nc(-c3ccc(CC(=O)Nc4cc(C(C)(C)C(F)(F)F)on4)c(F)c3)cnc2cc1OC1CNC1` ?
result: 5 to 20 nM

query: What does the record list as Kd for `CNCCOc1cc2ncc(-c3ccc(CC(=O)Nc4cc(C5(C(F)(F)F)CC5)on4)c(F)c3)nc2cc1OC` ?
result: < 5 nM

* * *

Molecular target: KIT kinase (Homo sapiens (Human), UniProt P10721)
Sequence (P10721 26-976): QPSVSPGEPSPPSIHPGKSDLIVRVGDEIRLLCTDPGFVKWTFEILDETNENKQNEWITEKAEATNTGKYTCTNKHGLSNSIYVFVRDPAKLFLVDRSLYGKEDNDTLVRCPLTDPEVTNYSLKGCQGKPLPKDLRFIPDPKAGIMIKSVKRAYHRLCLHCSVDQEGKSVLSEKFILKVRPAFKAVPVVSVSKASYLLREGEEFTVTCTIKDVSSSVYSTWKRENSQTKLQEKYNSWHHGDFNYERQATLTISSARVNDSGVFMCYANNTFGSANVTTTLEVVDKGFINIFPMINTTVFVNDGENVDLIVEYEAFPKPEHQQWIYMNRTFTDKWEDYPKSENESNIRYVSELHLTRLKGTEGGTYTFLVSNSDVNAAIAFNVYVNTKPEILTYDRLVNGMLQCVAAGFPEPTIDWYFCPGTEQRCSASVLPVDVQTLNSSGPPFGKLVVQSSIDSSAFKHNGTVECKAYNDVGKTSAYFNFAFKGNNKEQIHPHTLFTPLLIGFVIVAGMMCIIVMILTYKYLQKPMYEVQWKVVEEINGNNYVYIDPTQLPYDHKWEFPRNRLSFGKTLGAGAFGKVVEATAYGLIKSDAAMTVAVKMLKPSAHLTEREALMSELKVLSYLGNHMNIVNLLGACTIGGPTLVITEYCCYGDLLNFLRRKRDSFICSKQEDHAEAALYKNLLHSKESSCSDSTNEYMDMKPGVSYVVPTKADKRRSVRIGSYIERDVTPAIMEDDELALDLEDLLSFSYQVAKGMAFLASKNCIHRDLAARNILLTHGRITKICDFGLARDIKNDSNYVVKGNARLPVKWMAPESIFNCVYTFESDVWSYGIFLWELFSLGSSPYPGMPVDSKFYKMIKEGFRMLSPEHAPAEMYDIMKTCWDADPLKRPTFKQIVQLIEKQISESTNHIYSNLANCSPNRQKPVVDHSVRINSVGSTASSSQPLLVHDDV
Assay: Competition binding assay (Kd), KIT
Settings: competition binding assay
pKd: −log10 of the molar value.
quantity: pKd

Worked examples follow.
CC(O)c1n[nH]c2ncc(-c3ccc(CC(=O)Nc4cc(C(C)(C)C)on4)c(F)c3)cc12 (stereo not drawn); > 8.30
COc1cc2cc(-c3ccc(CC(=O)Nc4cc(C5(C(F)(F)F)CC5)on4)c(F)c3)cnc2cc1OCCOC(C)=O; > 8.30
COc1cc2nc(-c3ccc(CC(=O)Nc4cc(C5(C(F)(F)F)CC5)on4)c(F)c3)cnc2cc1OCCN(C)C(C)=O; > 8.30
COCCOc1cc2ncc(-c3ccc(CC(=O)Nc4cc(C(C)(C)C(F)(F)F)on4)c(F)c3)nc2cc1OC; > 8.30
CN(C)C(=O)COc1cc2ncc(-c3ccc(CC(=O)Nc4cc(C5(C(F)(F)F)CC5)on4)c(F)c3)nc2cc1OCC(=O)N(C)C; > 8.30

query: What does the record list as pKd for `CN(C)CCNC(=O)c1n[nH]c2ncc(-c3ccc(CC(=O)Nc4cc(C(C)(C)C)on4)cc3)cc12` ?
result: 7.70 to 8.30

* * *

Target: KIT kinase (Homo sapiens (Human), UniProt P10721)
Assay: Competition binding assay (Kd), KIT
Details: competition binding assay
quantity: Kd

Worked examples follow.
CCOC(=O)c1nc2cc(OC)c(OC)cc2nc1-c1ccc(CC(=O)Nc2cc(C3(C(F)(F)F)CC3)on2)c(F)c1 [Example 132]; > 50 nM
COc1cc2ncc(-c3ccc(CC(=O)Nc4cc(C5(C(F)(F)F)CC5)on4)c(F)c3)nc2cc1OCc1ccccc1 [Example 156]; > 50 nM

Turning to the following compound.
query: What does the record list as Kd for O=C(Cc1ccc(-c2cnc3[nH]ncc3c2)cc1)Nc1cc(C2(C(F)(F)F)CC2)on1 [Example 15] ?
result: < 5 nM

Hey, just so you know, these numbers are from patent US9725465B2.
